test-target: EGFR (Homo sapiens, UniProt P00533)
Sequence (P00533 25-1210): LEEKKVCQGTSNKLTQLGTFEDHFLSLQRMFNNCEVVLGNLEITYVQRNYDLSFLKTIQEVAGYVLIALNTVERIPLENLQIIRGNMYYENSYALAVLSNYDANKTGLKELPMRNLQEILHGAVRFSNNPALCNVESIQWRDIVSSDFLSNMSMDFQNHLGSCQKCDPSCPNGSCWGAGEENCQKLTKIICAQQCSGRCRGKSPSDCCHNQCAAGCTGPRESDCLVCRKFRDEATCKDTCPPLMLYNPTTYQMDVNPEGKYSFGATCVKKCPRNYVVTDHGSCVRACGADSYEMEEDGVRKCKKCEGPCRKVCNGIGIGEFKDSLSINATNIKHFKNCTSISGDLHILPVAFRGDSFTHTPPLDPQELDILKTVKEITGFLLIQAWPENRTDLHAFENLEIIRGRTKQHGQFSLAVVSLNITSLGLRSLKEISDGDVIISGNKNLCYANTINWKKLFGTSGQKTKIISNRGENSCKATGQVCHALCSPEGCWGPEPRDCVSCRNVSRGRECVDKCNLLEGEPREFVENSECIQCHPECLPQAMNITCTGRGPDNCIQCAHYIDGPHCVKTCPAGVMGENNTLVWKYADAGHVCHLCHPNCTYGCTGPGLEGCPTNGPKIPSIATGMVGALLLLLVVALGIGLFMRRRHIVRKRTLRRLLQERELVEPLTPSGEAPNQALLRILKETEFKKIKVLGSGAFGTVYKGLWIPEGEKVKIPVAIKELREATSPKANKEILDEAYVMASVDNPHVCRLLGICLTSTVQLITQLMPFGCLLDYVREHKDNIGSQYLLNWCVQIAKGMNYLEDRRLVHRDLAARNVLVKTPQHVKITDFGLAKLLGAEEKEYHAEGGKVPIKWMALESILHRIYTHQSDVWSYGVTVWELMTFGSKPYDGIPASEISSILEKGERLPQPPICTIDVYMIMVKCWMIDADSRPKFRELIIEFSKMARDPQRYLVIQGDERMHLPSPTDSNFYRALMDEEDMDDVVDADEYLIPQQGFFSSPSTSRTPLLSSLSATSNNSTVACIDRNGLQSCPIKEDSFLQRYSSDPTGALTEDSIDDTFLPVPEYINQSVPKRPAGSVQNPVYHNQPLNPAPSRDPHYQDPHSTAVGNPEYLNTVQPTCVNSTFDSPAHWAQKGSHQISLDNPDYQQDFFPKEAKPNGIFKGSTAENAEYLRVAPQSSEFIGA
assay-method-text: Inhibition of a panel of kinases, in vitro HotSpot kinase assay: EGFR
Assay type: biochemical
assay-setup: D-compounds panel data; 1 μM ATP
observation-type: IC50

Check out these entries, answers already filled in.
C[C@@H]1[C@H](NC(=O)c2ccc(C3CC3)cc2)CCCN1c1cnc(C(N)=O)c(Nc2cnn(-c3ccncc3)c2)n1 [Example D-284] | > 10000 nM
Cn1cc(Nc2nc(N3CCC[C@@H](NC(=O)c4ccc(C(C)(C)O)cc4)C3)nnc2C(N)=O)cn1 [Example D-39] | > 10000 nM
C[C@@H]1[C@H](NC(=O)c2ccc(C3CC3)cc2F)CCCN1c1cnc(C(N)=O)c(Nc2cnn(C)c2)n1 [Example D-1] | 1000 to 10000 nM

Look up IC50 of CN1CCN(C(=O)c2ccc(Nc3nc(N[C@H]4CC[C@H](NC(=O)N(C)C)CC4)cnc3C(N)=O)cc2)CC1 [Example D-69] and report it. 100 to 1000 nM

Look up IC50 of C[C@@H]1[C@H](NC(=O)c2ccc(C3(C(F)(F)F)CC3)cc2)CCCN1c1cnc(C(N)=O)c(Nc2cnn(C)c2)n1 [Example D-221] and report it. 1000 to 10000 nM

Look up IC50 of C[C@@H]1[C@H](NC(=O)N(C)C)CCCN1c1cnc(C(N)=O)c(Nc2ccc(OC3CCN(C4CCCC4)CC3)cc2)n1 [Example D-102] and report it. 100 to 1000 nM

Look up IC50 of C[C@@H]1[C@H](NC(=O)c2ccc(C(F)(F)F)nc2)CCCN1c1cnc(C(N)=O)c(Nc2cnn(C)c2)n1 [Example D-91] and report it. 100 to 1000 nM
